- PROTOCOL DESCRIPTION: physchem
- Format: physicochemical
- REPORTED CONDITIONS: 25 °C, aqueous buffer, thermodynamic from solid; solvent WFI; pH 6.51; HCl counter-ion; read-out: LD-Lys TFA salt concentration
Structures can show the parent of a compound that is named as a salt. Non-standard residues stand in square brackets, D forms with d. Residues, ends and D or L forms follow the SMILES beside them. Dopa = N[C@@H](Cc1ccc(O)c(O)c1)C(=O)O

[
  {
    "COMPOUND": "NCCCC[C@H](NC(=O)[C@@H](N)Cc1ccc(O)c(O)c1)C(=O)O [LD-Lys HCl salt] (H-[Dopa]-Lys-OH)",
    "READOUT UNITS": "mg/mL",
    "solubility thermodynamic": 350
  }
]

Hello, the source for this data is patent US20220362386A1, in case you need it.
